Provenance of the data: PubChem BioAssay (NCI)

System: NCI-H226 lung
Assay: NCI-60 one-dose screen, 48 h
Settings: 10 µM unless noted
Procedure: Growth inhibition of the NCI-H226 human Non-Small Cell Lung tumor cell line is measured as a screen for anti-cancer activity. Cells are grown in 96 well plates and exposed to the test compound for 48 hours. Compounds are tested at a single concentration, which is 10^-5 M for most compounds. The reported endpoint is percent growth (GI% or GIPRCNT), where numbers from 0 - 100% represent growth inhibition, and numbers from -100% - 0 represent cell death. […]
This is part of a sample that, as a whole, favours compounds with a hit. Of some 83,000 tested, about 20% had one in any assay. Calls of active or inactive are those of the source. The calls were made as follows: active = growth percent below 10; inactive = the rest.
Your answer must be one of the following: TRUE (active), FALSE (inactive)

Qu. Record request — test call for COc1ccc(NC(=O)CSc2oc(-c3ccccc3)nc2S(=O)(=O)c2ccc(Cl)cc2)c(OC)c1
Ans. TRUE

Qu. # outcome recorded in this test, key = CN1CCN(Cc2ccc(NC(=O)c3cncc(C#Cc4cnc(N)c5ccc(C#N)cc45)c3)cc2C(F)(F)F)CC1
Ans. TRUE

Qu. Each compound tested received a call. Report the one for O=C(N/N=C/c1ccccc1Cl)c1ccccc1Nc1ccnc(C(F)(F)F)c1 .
Ans. TRUE

Qu. Outcome? COc1ccc(S(=O)(=O)NC2c3ccccc3CC2O)cc1OC (centres undefined)
Ans. FALSE

Qu. Test call, this compound: COC(=O)[C@H](C)NC(=O)[C@@H]1CCCN1C(=O)CNC(=O)[C@H](C)N
Ans. FALSE

Qu. Entry COC(=O)c1sc(-c2ccc(C)cc2)cc1O : call = ?
Ans. FALSE

Qu. Please let me know the test result on file for O=C(Nc1ncc(Cc2ccc(Cl)cc2)s1)c1ccc2c(c1)OCCO2 .
Ans. FALSE

Qu. Tell me the recorded outcome of this test for CCNc1nc(-c2ccc(Cl)c(OC)c2)c(-c2ccnc(NCCNS(=O)(=O)c3ccc(Cl)cc3)n2)s1 .
Ans. FALSE

Qu. Outcome? CC1=C(C(=O)OCc2ccccc2)C(c2ccc3c(c2)OCO3)n2c(nc3ccccc32)N1 (centres undefined)
Ans. FALSE

Qu. Give the logged outcome of this assay for the following compound: O=C1C(Nc2ccc(Br)cc2)=C(I)C(=O)c2ncccc21
Ans. FALSE

Qu. Would you mind telling me which call this test gave Cn1cc(-c2csc(-c3cn(CCO)c4ccc(F)cc34)n2)c2cccnc21 ?
Ans. FALSE

Qu. Could you check what this test reported for Cc1cccc(C)c1NC(=O)Nc1ccccc1 ?
Ans. FALSE

Qu. I'd appreciate the recorded outcome for O=S(=O)(c1ccc(NCSc2nc3ccccc3s2)cc1)c1ccc(NCSc2nc3ccccc3s2)cc1 from this test.
Ans. FALSE

Qu. For this compound, state the assay outcome: COc1cc(C2CC(c3cccc(Nc4ccncc4)c3)=Nc3c(N)ncnc3N2)cc(OC)c1OC (centres undefined)
Ans. FALSE

Qu. How did this test come out for C[C@H]1c2ccccc2CN1CCCOc1cc2c(cc1OCC1CC1)C1(CCCC1)C(N)=N2 ?
Ans. FALSE

Qu. What classification did C#CCOc1cccc(-c2ncnc3cc(NC(=O)CCl)ccc23)c1 end up with in this test?
Ans. TRUE

Qu. Test call for this compound, please: O=C(Nc1ncc(Cc2ccccc2Cl)s1)c1ccc2c(c1)OCCO2
Ans. FALSE

Qu. Which outcome was entered for the compound CCOC(=O)C#Cc1c(CC(=O)OCC)nnn1[C@H]1O[C@@H](CO)[C@@H]2OC(C)(C)O[C@@H]21 in this test?
Ans. FALSE

Qu. Tell me the recorded outcome of this test for O=C1NCCS(=O)(=O)/C1=C\C=C\c1cccc(C(F)(F)F)c1 .
Ans. FALSE

Qu. Give the logged outcome of this assay for the following compound: CNC1=C(Br)C(=O)c2c(C(=O)OC)c(C)nc(C)c2C1=O
Ans. FALSE

Qu. Field: outcome | Entry: Cn1cc(-c2ccc3c(Nc4cccc(NC(=O)Nc5cccc(F)c5)c4)ncnc3c2)cn1
Ans. FALSE

Qu. What did this assay record as the result for CC1=C2[C@@H](CC1)[C@]1(C)O[C@@](C(C)C)(C[C@H]1OC(=O)CO)[C@H]2OC(=O)CCCc1ccccc1 ?
Ans. FALSE

Qu. Hi team, can someone confirm the assay call for COc1cc(/C=C2\C(=O)N(CCOc3cc(O)c4c(=O)cc(-c5ccccc5)oc4c3)c3ccccc32)cc(OC)c1O ?
Ans. FALSE

Qu. Lab log entry: O=C1CCc2c(sc3[nH]c(=S)n(-c4cc(C(F)(F)F)cc(C(F)(F)F)c4)c(=O)c23)C1 — outcome as called in the assay?
Ans. TRUE

Qu. Test call, this compound: N#CSCc1cc(Cl)c(CSC#N)cc1Cl
Ans. FALSE

Qu. Assay result, entry O=C(/C=C/c1ccc([N+](=O)[O-])cc1)c1cccc(Nc2nc(Nc3ccccc3)nc(Nc3ccccc3)n2)c1 — outcome?
Ans. FALSE

Qu. For C#CCOc1cc(/C=N/Nc2nc(-c3ccc(OC)cc3)cs2)ccc1O , which call appears in the assay record?
Ans. FALSE

Qu. What did this assay record as the result for Cc1ccc(-c2nn(CC(=O)N3CCOCC3)c(N)c2C#N)cc1 ?
Ans. FALSE

Qu. Please share the test call associated with O=C(Nc1ccc(Cl)cc1)C1=NCCCCN1 .
Ans. FALSE

Qu. Which result was noted for this compound in the test: O=c1c2cccc3c(N4CCOCC4)ccc(c32)c2nc3ccccc3n12
Ans. FALSE

Qu. Recorded test call requested for CC(C)C(=O)Nc1ncc(C(=O)NCCN(Cc2ccccc2)C(=O)c2ccc(S(=O)(=O)Nc3ccccc3)cc2)s1
Ans. FALSE

Qu. Lab log entry: O=C(CSc1nc(-c2ccccc2)cn1-c1ccc(Cl)cc1)c1ccc([N+](=O)[O-])cc1 — outcome as called in the assay?
Ans. FALSE

Qu. Per the assay record, what outcome was assigned to Cn1nc(-c2ccc(Cl)cc2)nc2c(=O)n(C)c(=O)nc1-2 ?
Ans. TRUE

Qu. # lookup: test call for O=C1CCC(C(=O)N/N=C/c2ccc([N+](=O)[O-])cc2)N1 (centres undefined)
Ans. FALSE
